Values were extracted from ChEMBL document CHEMBL3046894.

Test system: Gossypium hirsutum
Assay: Pre-emergence phytotoxicity against Gossypium hirsutum (cotton) assessed as mortality at 6.3 g a.i/10 a
Type: organism-based
Details: in vivo, other
MEASUREMENT KIND: Activity

>  <MOLECULE>
COc1cc(OC)nc(Oc2cccc(Br)c2C(=O)O)n1

>  <EXPERIMENTAL TARGET>
Gossypium hirsutum

>  <MEASUREMENT KIND>
Activity

>  <RESULT>
Non-toxic

$$$$
>  <MOLECULE>
COc1cc(OC)nc(Sc2cccc(OC)c2C(=O)O)n1

>  <EXPERIMENTAL TARGET>
Gossypium hirsutum

>  <MEASUREMENT KIND>
Activity

>  <RESULT>
Non-toxic

$$$$
>  <MOLECULE>
COc1cc(OC)nc(Oc2cccc(F)c2C(=O)O)n1

>  <EXPERIMENTAL TARGET>
Gossypium hirsutum

>  <MEASUREMENT KIND>
Activity

>  <RESULT>
Toxic

$$$$

----------
System: Gossypium hirsutum
Assay: Pre-emergence phytotoxicity against Gossypium hirsutum (cotton) assessed as mortality at 1.6 g a.i/10 a
Type: organism-based
Conditions: in vivo, other
MEASUREMENT KIND: Activity

Before answering, review these 5 worked examples.
>  <MOLECULE>
COc1cc(OC)nc(Oc2ccccc2C(=O)O)n1

>  <Activity>
Non-toxic

$$$$
>  <MOLECULE>
COc1cc(OC)nc(Sc2cccc(Br)c2C(=O)O)n1

>  <Activity>
< 50%

$$$$
>  <MOLECULE>
CCSc1cccc(Sc2nc(OC)cc(OC)n2)c1C(=O)O

>  <Activity>
< 50%

$$$$
>  <MOLECULE>
COc1cc(OC)nc(Oc2cccc(Cl)c2C(=O)O)n1

>  <Activity>
Non-toxic

$$$$
>  <MOLECULE>
COc1cc(OC)nc(Sc2cccc(F)c2C(=O)O)n1

>  <Activity>
< 50%

$$$$

Give me measured Activity, please, for this compound: `COc1cc(OC)nc(Sc2cccc([N+](=O)[O-])c2C(=O)O)n1`
< 50%

Quick one: give measured Activity for `COc1cc(OC)nc(Sc2cccc(C)c2C(=O)O)n1`
< 50%

Provide measured Activity value, entry: `CCCOc1cccc(Sc2nc(OC)cc(OC)n2)c1C(=O)O`
Non-toxic

----------
Test system: Ipomoea lacunosa
Experiment: Post-emergence herbicidal activity against Ipomoea lacunosa assessed as mortality at 1.6 g a.i/10 a applied 11 days after germination as foliar spray
Format: functional
Conditions: 264 h
MEASUREMENT KIND: mortality at 16 g/ha

Illustrative cases are given below, each with its answer.
>  <MOLECULE>
COc1cc(OC)nc(Oc2cccc(I)c2C(=O)O)n1

>  <mortality at 16 g/ha>
> 90%

$$$$
>  <MOLECULE>
COc1cc(OC)nc(Sc2cccc(C)c2C(=O)O)n1

>  <mortality at 16 g/ha>
< 5%

$$$$
>  <MOLECULE>
CCCOc1cccc(Sc2nc(OC)cc(OC)n2)c1C(=O)O

>  <mortality at 16 g/ha>
< 5%

$$$$
>  <MOLECULE>
COc1cc(OC)nc(Oc2cccc([N+](=O)[O-])c2C(=O)O)n1

>  <mortality at 16 g/ha>
< 5%

$$$$
>  <MOLECULE>
COc1cc(OC)nc(Oc2cccc(Br)c2C(=O)O)n1

>  <mortality at 16 g/ha>
> 90%

$$$$

// Input: `COc1cc(OC)nc(Oc2cccc(C)c2C(=O)O)n1` . Output its mortality at 16 g/ha only.
< 5%

Respond only with mortality at 16 g/ha recorded for `COc1cc(OC)nc(Oc2ccccc2C(=O)O)n1`
< 5%

Recall and state the measured mortality at 16 g/ha for `CCc1cccc(Oc2nc(OC)cc(OC)n2)c1C(=O)O` .
< 5%

----------
Tested on: Digitaria sanguinalis
Assay: Post-emergence herbicidal activity against Digitaria sanguinalis (hairy crabgrass) assessed as growth inhibition at 25 g a.i/10 a applied 11 days after germination as foliar spray
Format: functional, organism-based
Active and inactive are the calls of the source. The rule behind the calls is not given here.
Please state which outcome applies, choosing from yes for active, no for inactive

>  <COMPOUND>
COc1cc(OC)nc(Oc2cccc(OC(F)F)c2C(=O)O)n1

>  <EXPERIMENTAL TARGET>
Digitaria sanguinalis

>  <CLASS LABEL>
yes

$$$$
>  <COMPOUND>
COc1ccc(Oc2nc(OC)cc(OC)n2)c(C(=O)O)c1

>  <EXPERIMENTAL TARGET>
Digitaria sanguinalis

>  <CLASS LABEL>
yes

$$$$

// outcome(item) with item = `COc1cc(OC)nc(Oc2cc(N)ccc2C(=O)O)n1`
no

What was the test verdict on `COc1cc(OC)nc(Oc2cccc(-c3ccccc3)c2C(=O)O)n1` ?
yes

Please state the recorded outcome for this compound: `COc1cc(OC)nc(Oc2ccccc2C(=O)O)n1`
yes

Given COc1cc(OC)nc([S+]([O-])c2cccc(Cl)c2C(=O)O)n1 (stereo not drawn) , state the outcome it received in this test.
no

What was the test verdict on `COc1cc(OC)nc(Oc2cccc(F)c2C(=O)O)n1` ?
yes

Lab log entry: `COc1cc(OC)nc(Nc2cccc(Cl)c2C(=O)O)n1` — outcome as called in the assay?
no

----------
# mortality listing for each entry below
Test: Pre-emergence phytotoxicity against Zea mays (maize) assessed as mortality at 1.6 g a.i/10 a
Type: organism-based
Conditions: in vivo, 1.6 g a.i/10 a, read-out: mortality

Would you please look over these solved cases?
>  <MOLECULE>
COC(=O)c1cccc(Oc2nc(OC)cc(OC)n2)c1C(=O)O

>  <RESULT>
< 5%

$$$$
>  <MOLECULE>
COc1cc(OC)nc(Oc2cccc(Cl)c2C(=O)O)n1

>  <RESULT>
> 90%

$$$$
>  <MOLECULE>
COc1cc(OC)nc(Oc2cccc(F)c2C(=O)O)n1

>  <RESULT>
> 90%

$$$$
>  <MOLECULE>
COc1cc(OC)nc(Oc2cccc(Br)c2C(=O)O)n1

>  <RESULT>
> 90%

$$$$
>  <MOLECULE>
COc1cc(OC)nc(Oc2cccc([N+](=O)[O-])c2C(=O)O)n1

>  <RESULT>
< 5%

$$$$
>  <MOLECULE>
COc1cc(OC)nc(Oc2cccc(C(F)(F)F)c2C(=O)O)n1

>  <RESULT>
> 90%

$$$$
>  <MOLECULE>
COc1cc(OC)nc(Oc2cccc(I)c2C(=O)O)n1

>  <RESULT>
> 90%

$$$$

Query mortality for `COc1cc(OC)nc(Oc2cccc(C)c2C(=O)O)n1`
> 90%

----------
Test system: Zea mays
Assay: Post-emergence phytotoxicity against Zea mays (maize) assessed as mortality at 1.6 g a.i/10 a applied 11 days after germination as foliar spray
Format: organism-based
Settings: in vivo, other, 264 h
MEASUREMENT KIND: Activity

Examples from the recorded data:
>  <MOLECULE>
COc1cc(OC)nc(Sc2cccc(SC)c2C(=O)O)n1

>  <EXPERIMENTAL TARGET>
Zea mays

>  <RESULT>
Toxic

$$$$
>  <MOLECULE>
COc1cc(OC)nc(Oc2ccccc2C(=O)O)n1

>  <EXPERIMENTAL TARGET>
Zea mays

>  <RESULT>
Toxic

$$$$
>  <MOLECULE>
COc1cc(OC)nc(Oc2cccc(F)c2C(=O)O)n1

>  <EXPERIMENTAL TARGET>
Zea mays

>  <RESULT>
Toxic

$$$$
>  <MOLECULE>
CCOc1cccc(Sc2nc(OC)cc(OC)n2)c1C(=O)O

>  <EXPERIMENTAL TARGET>
Zea mays

>  <RESULT>
Toxic

$$$$
>  <MOLECULE>
COc1cc(OC)nc(Sc2cccc(F)c2C(=O)O)n1

>  <EXPERIMENTAL TARGET>
Zea mays

>  <RESULT>
Toxic

$$$$

Provide Activity value for the following molecule: `COc1cc(OC)nc(Sc2cccc(C(F)(F)F)c2C(=O)O)n1`
Toxic

Write down Activity measured for item `COc1cc(OC)nc(Sc2cccc(Br)c2C(=O)O)n1`
Toxic

Give the measured Activity for `COc1cc(OC)nc(Sc2cccc(OC)c2C(=O)O)n1`
Toxic

----------
Tested on: Gossypium hirsutum
Experiment: Pre-emergence phytotoxicity against Gossypium hirsutum (cotton) assessed as mortality at 1.6 g a.i/10 a
Format: organism-based
Conditions: in vivo, other
MEASUREMENT KIND: Activity

>  <MOLECULE>
CCOc1cccc(Sc2nc(OC)cc(OC)n2)c1C(=O)O

>  <Activity>
< 50%

$$$$
>  <MOLECULE>
COc1cc(OC)nc(Oc2cccc(Br)c2C(=O)O)n1

>  <Activity>
Non-toxic

$$$$
>  <MOLECULE>
COc1cc(OC)nc(Oc2cccc(F)c2C(=O)O)n1

>  <Activity>
Non-toxic

$$$$
>  <MOLECULE>
COc1cc(OC)nc(Sc2cccc(OC)c2C(=O)O)n1

>  <Activity>
Non-toxic

$$$$
>  <MOLECULE>
COc1cc(OC)nc(Sc2cccc(C(F)(F)F)c2C(=O)O)n1

>  <Activity>
< 50%

$$$$

# context switch: different molecule, same Activity
Annotate the molecule `COc1cc(OC)nc(Oc2cccc(I)c2C(=O)O)n1` with its measured Activity.
Non-toxic
